species on record: Rattus norvegicus; assay: DrugMatrix - Regimen: Daily Repeat; format: toxicity, organism-based, Sprague-Dawley; design: regimen Daily Repeat, gender Male, age 6-8 weeks; conditions: in vivo, sc, 0 mg/kg, 72 h, tissue Plasma, route subcutaneous, dose level Control, time 3 day, […]
Kindly supply the reported CHLORIDE values for the records listed here.
Numbers only, in MEQ/L.

Examples with their reported CHLORIDE follow.
>>> print(df.to_string())
                                   molecule  measurement
0  CCN(CC)CCOCCC1=CCC2CC1C2(C)C (stereo not given)          100
1  Oc1c(Cl)cc(Cl)c(Cl)c1Cc1c(O)c(Cl)cc(Cl)c1Cl        103.5
2  CC(C)(C)CC(C)(C)c1ccc(OCCOCC[N+](C)(C)Cc2ccccc2)cc1.[Cl-] [BENZETHONIUM CHLORIDE]        103.5
3       O=C(Nc1ccc(Br)cc1)c1cc(Br)cc(Br)c1O       101.83

Proceeding to the next molecule to report its CHLORIDE.
Q. Would you mind telling me what CHLORIDE value was observed for CCC(=O)O[C@]1(C(=O)CCl)[C@@H](C)C[C@H]2[C@@H]3CCC4=CC(=O)C=C[C@]4(C)[C@@]3(F)[C@@H](O)C[C@@]21C [CLOBETASOL PROPIONATE] ?
A. 101.83

----------
organism: Rattus norvegicus; experiment: DrugMatrix - Regimen: Daily Repeat; format: toxicity, organism-based, Sprague-Dawley; parameters: regimen Daily Repeat, gender Male, age 6-8 weeks; conditions: in vivo, ip, 40 mg/kg, […], tissue Blood, route intraperitoneal, dose level High, time 28 day, vehicle 100 % SALINE
Property label: ABSOLUTE EOSINOPHIL (cells/µL)
Numbers only, in cells/µL.

Q. Bench note: what ABSOLUTE EOSINOPHIL did `GENTAMICIN` show?
A. 110

----------
organism: Rattus norvegicus; experiment: DrugMatrix - Regimen: Daily Repeat; assay type: toxicity, organism-based, Sprague-Dawley; parameters: regimen Daily Repeat, gender Male, age 6-8 weeks; conditions: in vivo, po, 0 mg/kg, 72 h, tissue Blood, route oral GAVAGE, dose level Control, time 3 day, vehicle .5 % CMC
For each record, check the reported NEUTROPHIL: if it is below 10% write satisfied, else write not satisfied.

See these solved cases before continuing.
>>> df
                                   compound    label_value
0           COc1ccc(C2C(=O)c3ccccc3C2=O)cc1  not satisfied
1      CN(C/C=C/C#CC(C)(C)C)Cc1cccc2ccccc12  not satisfied
2  NC1CCN(c2nc3c(cc2F)c(=O)c(C(=O)O)cn3-c2ccc(F)cc2F)C1 (stereo not drawn)  not satisfied
3  CN(C)[C@@H]1C(O)=C(C(N)=O)C(=O)[C@@]2(O)C(O)=C3C(=O)c4c(O)ccc(Cl)c4[C@@](C)(O)[C@H]3C[C@@H]12  not satisfied
4              NCCCC(O)(P(=O)(O)O)P(=O)(O)O  not satisfied

Q. Find out if reported NEUTROPHIL for `CC(=O)Oc1ccc(C(c2ccc(OC(C)=O)cc2)c2ccccn2)cc1` is less than 10%
A. not satisfied

Q. Confirm or reject: NEUTROPHIL of O=C1C(CC[S+]([O-])c2ccccc2)C(=O)N(c2ccccc2)N1c1ccccc1 (stereo not drawn) lies strictly below 10%
A. satisfied

Q. Input `O=C1CN=C(c2ccccc2Cl)c2cc([N+](=O)[O-])ccc2N1` ; condition: NEUTROPHIL strictly below 10%. Does it hold?
A. satisfied

----------
species on record: Rattus norvegicus; assay: DrugMatrix - Regimen: Daily Repeat; format: toxicity, organism-based, Sprague-Dawley; design: regimen Daily Repeat, gender Male, age 6-8 weeks; details: in vivo, po, 10 mg/kg, 120 h, tissue Plasma, route oral GAVAGE, dose level Low, time 5 day, vehicle .5 % CMC
Consider the following compounds; for each one, report its ALANINE AMINOTRANSFERASE.
Numbers only, in u/L.

Solved entries:
In [3]: df
Out[3]:
                                   compound            property_label  unit_abbreviation  measurement
0  CNCCC(Oc1ccc(C(F)(F)F)cc1)c1ccccc1 (centres undefined)  ALANINE AMINOTRANSFERASE                u/L           35
1  O=C1CN=C(c2ccccc2Cl)c2cc([N+](=O)[O-])ccc2N1  ALANINE AMINOTRANSFERASE                u/L           54
2  O=C1C(CC[S+]([O-])c2ccccc2)C(=O)N(c2ccccc2)N1c1ccccc1 (centres undefined)  ALANINE AMINOTRANSFERASE                u/L        51.33

Q. Sample `Fc1ccc(C(c2ccc(F)cc2)N2CCN(C/C=C/c3ccccc3)CC2)cc1` — what was its ALANINE AMINOTRANSFERASE?
A. 52

----------
species: Rattus norvegicus; assay: DrugMatrix - Regimen: Daily Repeat; assay type: toxicity, organism-based, Sprague-Dawley; design: regimen Daily Repeat, gender Male, age 6-8 weeks; details: in vivo, po, 0 mg/kg, 72 h, tissue Blood, route oral GAVAGE, dose level Control, time 3 day, vehicle .5 % CMC
Category key, based on recorded MONOCYTE: LOW (below 1%), MEDIUM (1% to below 2%), HIGH (2% or more)

Examples from the recorded data:
                                   compound  label_value
0  CN/C(=N/CCSCc1nc[nH]c1C)NC#N [CIMETIDINE]       MEDIUM
1  O=C1CN=C(c2ccccc2Cl)c2cc([N+](=O)[O-])ccc2N1 [CLONAZEPAM]       MEDIUM
2  NC1CCN(c2nc3c(cc2F)c(=O)c(C(=O)O)cn3-c2ccc(F)cc2F)C1 (stereo not drawn) [TOSUFLOXACIN]          LOW

Q. Bin? CN(C/C=C/C#CC(C)(C)C)Cc1cccc2ccccc12 [TERBINAFINE]
A. LOW

Q. Class (by measured MONOCYTE) for CCN(CC)CCOc1ccc(/C(=C(/Cl)c2ccccc2)c2ccccc2)cc1 [ENCLOMIPHENE]
A. LOW

Q. Each compound maps to one class by MONOCYTE. Which class for CN(C)[C@@H]1C(O)=C(C(N)=O)C(=O)[C@@]2(O)C(O)=C3C(=O)c4c(O)ccc(Cl)c4[C@@](C)(O)[C@H]3C[C@@H]12 [CHLORTETRACYCLINE] ?
A. HIGH

Q. Exam item: assign CC(C(=O)O)c1ccc2oc(-c3ccc(Cl)cc3)nc2c1 (stereo not drawn) [BENOXAPROFEN] to the correct category.
A. HIGH

Q. Entry Cn1c(=O)c2c(ncn2CC(O)CO)n(C)c1=O (stereo not drawn) [DYPHYLLINE] belongs to which category?
A. HIGH

Q. Pick a category. Item: O=C1Nc2ccc(Cl)cc2C(c2ccccc2Cl)=NC1O (stereo not drawn) [LORAZEPAM]
A. MEDIUM

Q. Class for NCCCC(O)(P(=O)(O)O)P(=O)(O)O [ALENDRONIC ACID] ?
A. MEDIUM

----------
organism: Rattus norvegicus; assay: DrugMatrix - Regimen: Daily Repeat; format: toxicity, organism-based, Sprague-Dawley; design: regimen Daily Repeat, gender Male, age 6-8 weeks; conditions: in vivo, po, 0 mg/kg, 120 h, tissue Blood, route oral GAVAGE, dose level Control, time 5 day, vehicle .5 % CMC
Property label: ABSOLUTE EOSINOPHIL

Examples with answers:
>>> print(df.to_string())
                                   compound      measurement
0  CCN(CC)CCOc1ccc(/C(=C(/Cl)c2ccccc2)c2ccccc2)cc1 [ENCLOMIPHENE]  148.67 CELLS/uL
1  COC1=C(OC)C(=O)C(CCCCCCCCCCO)=C(C)C1=O [IDEBENONE]  138.17 CELLS/uL
2  Cn1c(=O)c2c(ncn2CC(O)CO)n(C)c1=O (stereo not given) [DYPHYLLINE]   114.5 CELLS/uL
3  C[C@H]1O[C@@H](n2cc(F)c(=O)[nH]c2=O)[C@H](O)[C@@H]1O [DOXIFLURIDINE]  138.17 CELLS/uL

Report ABSOLUTE EOSINOPHIL for every entry below.
1. O=C1C(CC[S+]([O-])c2ccccc2)C(=O)N(c2ccccc2)N1c1ccccc1 (stereo not given) [SULFINPYRAZONE]
2. COc1cc2nc(N3CCN(C(=O)c4ccco4)CC3)nc(N)c2cc1OC [PRAZOSIN]
3. O=C1Nc2ccc(Cl)cc2C(c2ccccc2Cl)=NC1O (stereo not given) [LORAZEPAM]

A.
["69 CELLS/uL", "69 CELLS/uL", "69 CELLS/uL"]
